- Assay system: T1, cynomolgus monkey IL-33 expressed with a C-terminal hexahistidine tag (cynomolgus monkey)
- T1 construct: also called MfIL-33-6His; Mf-IL-33-6His
- T1 chain: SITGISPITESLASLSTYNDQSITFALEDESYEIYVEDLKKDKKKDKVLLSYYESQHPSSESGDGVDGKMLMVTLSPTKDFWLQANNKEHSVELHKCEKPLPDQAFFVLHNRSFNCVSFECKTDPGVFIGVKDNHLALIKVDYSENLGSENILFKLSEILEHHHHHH
- Assay explanation: SPR 25C, pH6.0 chase, mAb captured
Assay readout: koff (s⁻¹)
# value in s⁻¹; strip the unit string

{"Binder": "H4H9667P (antibody, human IgG4, V domains shown, Human IgG4 Fc (H4H)) VH: EVQLVESGGGLVQPGGSLRLSCAASGFTFSTYSMHWVRQAPGKGLEYVSTINNNGDTTYYADSVKGRFTISRDNSKNTLYLQLGSLRPEDMAVYYCARQTYTSSWYGGFDSWGQGTLVTVSS VL: DIQMTQSPSSVSASVGDRVTITCRASQGITSWLAWYQQKPGKAPKLLIYAASNLQSGVPSRFSGSGSGTDFTLTITSLQPEDFATYYCQQANSLPFTFGPGTKVDIK", "koff (s⁻¹)": 0.000696}
{"Binder": "H4H9675P (antibody, human IgG4, V domains shown, Human IgG4 Fc (H4H)) VH: EVQLVESGGNLEQPGGSLRLSCTASGFTFSRSAMNWVRRAPGKGLEWVSGISGSGGRTYYADSVKGRFTISRDNSKNTLYLQMNSLSAEDTAAYYCAKDSYTTSWYGGMDVWGHGTTVTVSS VL: DIQMTQSPSSVSASVGDRVTITCRASQGIFSWLAWYQQKPGKAPKLLIYAASSLQSGVPSRFSGSGSGTDFTLTISSLQPEDFAIYYCQQANSVPITFGQGTRLEIK", "koff (s⁻¹)": 0.00156}

Please find the next binder below.
Problem: # input binder: H4H9640P (antibody, human IgG4, V domains shown, Human IgG4 Fc (H4H)) VH: QVQLQESGPGLVKPSETLSLTCTVSGGSISSYYWSWIRQPPGKGLELIGYIYYSGSTNYNPSLKSRVTISVDTSKNHFSLKLSSVTAADTAVYYCARSQYTSSWYGSFDIWGQGTMVTVSS VL: DIQMTQSPSSVSASVGDRVTITCRASQGISTWLAWFQQKPGKAPKLLIYAASTLQGGVPSRFSGSGSGPEFTLTISSLQPEDFATYYCQQANSFPWTFGQGTKVEIK ; wanted: its koff
Solution: 0.000501
